Entries and their pKd
Biological target: Inadl_8, Q8NI35
Sequence (Q8NI35 1425-1530): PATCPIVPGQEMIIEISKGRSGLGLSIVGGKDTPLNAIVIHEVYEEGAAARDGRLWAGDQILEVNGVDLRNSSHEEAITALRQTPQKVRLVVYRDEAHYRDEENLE
Experiment: holdup assay
Design: key: below the threshold = too weak to quantify, mostly under pKd 3.1 to 4
Conditions: plain residues with an end cap or a label only (N-terminal biotin on a linker: ado-ado)

{"columns": ["binder", "pKd"],
 "data": [
  ["SKQFDKNAYV [CLDN10, P78369]", 3.5],
  ["QQGLLPHSSC [TYRO3, Q06418]", 4.08],
  ["NSTHNLKDYV [CLDN20, P56880]", 3.82],
  ["PSVYSRSQYV [CLDN8, P56748]", 3.84],
  ["HLSTRQGTCV [ATRNL1, Q5VV63]", 4.25],
  ["ATKDKKITTV [EXOC4, Q96A65]", 4.42],
  ["GVHSNDHSVV [LPAR1, Q92633]", 3.62]
]}
